system: H9 (human); assay: Cytotoxicity against human H9 cells assessed as growth inhibition after 4 days; conditions: H9, 96 h
Some molecules, each annotated with its measured IC50.
Numeric answer only, unit µM assumed.

Before answering, review these 4 worked examples.
molecule	target or test system	reading unit	IC50
C[C@H]1[C@H](C)CC[C@]2(C(=O)O)CC[C@]3(C)C(=CC[C@@H]4[C@@]5(C)CC[C@H](OC(=O)C(C)(C)CC(=O)O)C(C)(C)[C@@H]5CC[C@]43C)[C@H]12	H9 (human)	µM	30.7
C[C@H]1[C@H](C)CC[C@]2(C(=O)O)CC[C@]3(C)C(=CC[C@@H]4[C@@]5(C)CC[C@H](OC(=O)COCC(=O)O)C(C)(C)[C@@H]5CC[C@]43C)[C@H]12	H9 (human)	µM	48.2
C=C(C)[C@@H]1CC[C@]2(C(=O)O)CC[C@]3(C)[C@H](CC[C@@H]4[C@@]5(C)CC[C@H](O)C(C)(C)[C@@H]5CC[C@]43C)[C@@H]12 [BETULINIC ACID]	H9 (human)	µM	12.9
C[C@H]1[C@H](C)CC[C@]2(C(=O)O)CC[C@]3(C)C(=CC[C@@H]4[C@@]5(C)CC[C@H](OC(=O)CC(C)(C)C(=O)O)C(C)(C)[C@@H]5CC[C@]43C)[C@H]12	H9 (human)	µM	49.5

Attention now turns to another entry.
Prompt line: Quick check: IC50 on H9 (human), item C[C@H]1[C@H](C)CC[C@]2(C(=O)O)CC[C@]3(C)C(=CC[C@@H]4[C@@]5(C)CC[C@H](OC(=O)CCC(=O)O)C(C)(C)[C@@H]5CC[C@]43C)[C@H]12 ?
Response line: 44.9

====

test system: H9 (human); assay: Cytotoxicity against human H9 cells assessed as growth inhibition after 4 days; settings: h9
property: pIC50
Units for pIC50: none; it is -log10 of a concentration expressed in mol/L.

Prompt line: Entry C[C@H]1[C@H](C)CC[C@]2(C(=O)O)CC[C@]3(C)C(=CC[C@@H]4[C@@]5(C)CC[C@H](O)C(C)(C)[C@@H]5CC[C@]43C)[C@H]12 has what pIC50?
Response line: 5.74

====

Some molecules, each annotated with its measured pIC50.
tested on: H9 (human); assay: Cytotoxicity against human H9 cells assessed as growth inhibition after 4 days; conditions: H9, 96 h
Units for pIC50: none; it is -log10 of a concentration expressed in mol/L.

Before answering, review these 2 worked examples.
smiles notation	pIC50
C[C@H]1[C@H](C)CC[C@]2(C(=O)O)CC[C@]3(C)C(=CC[C@@H]4[C@@]5(C)CC[C@H](OC(=O)CC(C)(C)CC(=O)O)C(C)(C)[C@@H]5CC[C@]43C)[C@H]12	5.15
C[C@H]1[C@H](C)CC[C@]2(C(=O)O)CC[C@]3(C)C(=CC[C@@H]4[C@@]5(C)CC[C@H](OC(=O)CCCC(=O)O)C(C)(C)[C@@H]5CC[C@]43C)[C@H]12	4.51

Attention now turns to another entry.
Prompt line: Entry C=C(C)[C@@H]1CC[C@]2(C(=O)O)CC[C@]3(C)[C@H](CC[C@@H]4[C@@]5(C)CC[C@H](OC(=O)CC(C)(C)C(=O)O)C(C)(C)[C@@H]5CC[C@]43C)[C@@H]12 has what pIC50?
Response line: 5.15

The reported measurements were obtained from ChEMBL document CHEMBL1155638.
